Provenance of the data: patent US6323185

assayed-system: HIV-1 integrase wild-type (IN1-288) (HIV-1, UniProt P12497 P12497:1148-1435)
assay-method-text: inhibition; 3'-processing; strand transfer 620 nM
cond: G4
measure-name: pIC50
Recall that pIC50 is obtained by taking minus log10 of the concentration measured in molar.

Query string: pIC50 lookup needed for GTGGTTGGTGGGTTGGT (ssDNA, PS at first and last linkages) [T30677] , thanks.
Result string: 6.14
